The measured values listed here are drawn from ChEMBL document CHEMBL3044540.

Exercise: state measured inhibition of growth at 100 ppm for each of the compounds provided.
- Test system: Pythium
- Experimental details: Antifungal activity against Pythium sp. assessed as growth inhibition at 100 ppm by agar dilution method
- Format: functional
- Condition summary: read-out: GI
Give just the numeric value; % need not be written.

(Q) For the compound shown here, CC(C)CNP1(=S)OCc2cc(C(C)C)ccc2O1 (stereo not drawn) , give the reported inhibition of growth at 100 ppm.
(A) 18

(Q) And CCCCc1ccc2c(c1)COP(=S)(NC(C)C)O2 (stereo not drawn) ?
(A) 57

(Q) Try this compound next: CCCCc1ccc2c(c1)COP(=S)(NCCC)O2 (stereo not drawn)
(A) 72

(Q) Cool, now CCCc1ccc2c(c1)COP(=S)(NCC(C)C)O2 (stereo not drawn)
(A) 57

(Q) Entry CCCNP1(=S)OCc2cc(C(C)CC)ccc2O1 (stereo not drawn) please
(A) 48

(Q) Next compound up: CCCc1ccc2c(c1)COP(=S)(NC(C)CC)O2 (stereo not drawn)
(A) 59

(Q) Next: CCCCNP1(=S)OCc2cc(CCC)ccc2O1 (stereo not drawn)
(A) 65

(Q) Now try CCCc1ccc2c(c1)COP(=S)(NC(C)C)O2 (stereo not drawn) .
(A) 80

(Q) Can you handle CCCCc1ccc2c(c1)COP(=S)(NCC(C)C)O2 (stereo not drawn) next?
(A) 28

(Q) Note, next up: CCCCNP1(=S)OCc2cc(C(C)C)ccc2O1 (stereo not drawn)
(A) 49

(Q) And then CC(C)OP(=O)(OC(C)C)SCc1ccccc1 [IPROBENFOS] , what is it?
(A) 89

(Q) Consider next the compound CC(C)NP1(=S)OCc2cc(C(C)C)ccc2O1 (stereo not drawn) in the same way.
(A) 82

(Q) Another compound to look at: CCCNP1(=S)OCc2cc(CCC)ccc2O1 (stereo not drawn)
(A) 87

* * *

- Tested on: Pythium
- Experimental details: Antifungal activity against Pythium sp. assessed as growth inhibition at 100 ppm by agar dilution method
- Type: functional
- Condition summary: read-out: GI
Please provide measured inhibition of growth at 100 ppm for the entries that follow.
Record the value in %, omitting the unit from your answer.

(Q) # query: inhibition of growth at 100 ppm of entry CCCCNP1(=S)OCc2cc(C(C)CC)ccc2O1 (stereo not drawn)
(A) 11

(Q) Similarly, CCCNP1(=S)OCc2cc(C(C)C)ccc2O1 (stereo not drawn) ?
(A) 75

(Q) Lookup CCC(C)c1ccc2c(c1)COP(=S)(NCC(C)C)O2 (stereo not drawn)
(A) 14

(Q) One more compound: CCCCNP1(=S)OCc2cc(CCCC)ccc2O1 (stereo not drawn)
(A) 33

(Q) What do you get for CCC(C)NP1(=S)OCc2cc(C(C)CC)ccc2O1 (stereo not drawn) ?
(A) 7

(Q) Then this compound: CCC(C)c1ccc2c(c1)COP(=S)(NC(C)C)O2 (stereo not drawn)
(A) 48

(Q) What do you have for CCCCc1ccc2c(c1)COP(=S)(NC(C)CC)O2 (stereo not drawn) ?
(A) 38

(Q) Subsequent entry: CCC(C)NP1(=S)OCc2cc(C(C)C)ccc2O1 (stereo not drawn)
(A) 43

* * *

Can you tell me inhibition of growth at 10 ppm for the items I'm about to list?
- Test system: Pythium
- Experimental details: Antifungal activity against Pythium sp. assessed as growth inhibition at 10 ppm by agar dilution method
- Type: functional
- Condition summary: read-out: GI

(Q) # inhibition of growth at 10 ppm lookup, item CCCCNP1(=S)OCc2cc(C(C)CC)ccc2O1 (centres undefined)
(A) 4%

(Q) Then this molecule: CCC(C)NP1(=S)OCc2cc(C(C)CC)ccc2O1 (centres undefined)
(A) 0%

(Q) Field entry: CCCc1ccc2c(c1)COP(=S)(NC(C)CC)O2 (centres undefined)
(A) 44%

(Q) Param item: CCCCNP1(=S)OCc2cc(CCC)ccc2O1 (centres undefined)
(A) 54%

(Q) Next molecule: CCC(C)c1ccc2c(c1)COP(=S)(NCC(C)C)O2 (centres undefined)
(A) 0%

(Q) Queued: CCCCc1ccc2c(c1)COP(=S)(NC(C)C)O2 (centres undefined)
(A) 54%

(Q) Queued: CCCNP1(=S)OCc2cc(CCC)ccc2O1 (centres undefined)
(A) 66%

(Q) Another molecule to look at: CCC(C)NP1(=S)OCc2cc(C(C)C)ccc2O1 (centres undefined)
(A) 11%

(Q) Next molecule: CCCCc1ccc2c(c1)COP(=S)(NC(C)CC)O2 (centres undefined)
(A) 33%

(Q) Try the molecule CCCNP1(=S)OCc2cc(C(C)CC)ccc2O1 (centres undefined)
(A) 14%

(Q) Okay, and CCCCNP1(=S)OCc2cc(CCCC)ccc2O1 (centres undefined) ?
(A) 5%

(Q) Moving on to CC(C)CNP1(=S)OCc2cc(C(C)C)ccc2O1 (centres undefined)
(A) 14%

(Q) What do we get for CCCCc1ccc2c(c1)COP(=S)(NCC(C)C)O2 (centres undefined) ?
(A) 8%

(Q) Same again, this time with CC(C)NP1(=S)OCc2cc(C(C)C)ccc2O1 (centres undefined)
(A) 53%
